Experiment: self-splicing fitness, log relative to wild type (ln ratio); higher = more splicing; Tetrahymena group I intron in knt gene, E. coli kanamycin selection, DiMSum; sequences stand for … in CUCUCU…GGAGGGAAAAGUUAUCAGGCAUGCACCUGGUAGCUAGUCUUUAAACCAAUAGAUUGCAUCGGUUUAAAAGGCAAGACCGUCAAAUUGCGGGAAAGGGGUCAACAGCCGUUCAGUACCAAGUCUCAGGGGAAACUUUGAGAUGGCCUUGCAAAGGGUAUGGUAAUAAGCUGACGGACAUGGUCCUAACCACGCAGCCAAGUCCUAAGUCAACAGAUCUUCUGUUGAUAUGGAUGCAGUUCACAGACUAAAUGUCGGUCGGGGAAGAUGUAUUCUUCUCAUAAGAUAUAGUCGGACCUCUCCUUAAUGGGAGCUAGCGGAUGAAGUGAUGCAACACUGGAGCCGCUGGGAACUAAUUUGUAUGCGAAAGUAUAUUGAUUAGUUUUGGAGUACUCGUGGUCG;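 note: selection with 25 µg/mL kanamycin versus none on LB agar overnight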
Condition Set: 37 °C
Please use MET whenever self-splicing fitness (ln) is not below -2, and NOT MET whenever it is.

{"columns": ["Input Sequence", "Classification"],
 "data": [
  ["UACAAGCAAUAUUACGGGCU", "NOT MET"],
  ["CAUAAGCAAUAUUACGACAA", "MET"],
  ["GCAGAGCAAUAUUACGAGAU", "NOT MET"],
  ["GGCUAGCAAUAUUACGCGAA", "MET"],
  ["CACGAGCAAUAUUACGAGGG", "NOT MET"],
  ["CGUCAGCAAUAUUACGACCG", "MET"],
  ["AUACAGCAAUAUUACGUGCG", "MET"]
]}
